Tested on: K24384-001-R-PDC complex spheroid growth
experiment_summary: Anticancer human tumor K24384-001-R-PDC patient-derived pancreatic adenocarcinoma cell line growth inhibition [AhR]
setup_conditions: second compound 3.16 µM; first compound 0.0316 µM; hits give low values
Here, each record is paired with measured viability, T/C data.
value_type: viability, T/C (%)

{"compound": "COc1ccc([C@@H](O)c2cc(-c3ncnc4cc(N5CCOCC5)ccc34)c(F)cc2Cl)nn1 + Cc1ccccc1N=Nc1ccc(NC(=O)c2ccnn2C)c(C)c1", "recorded_value": 99.9}
{"compound": "COc1ccc([C@@H](O)c2cc(-c3ncnc4cc(N5CCOCC5)ccc34)c(F)cc2Cl)nn1 + Cc1cncc(-c2nc(NCCc3c[nH]c4ccccc34)c3ncn(C(C)C)c3n2)c1", "recorded_value": 76.8}
{"compound": "Nc1ccn(C2OC(CO)C(O)C2(F)F)c(=O)n1 (stereo not drawn) + CC(CO)NC(=O)c1cc(-c2ccc(Cl)cc2)nn(-c2cnn(C)c2)c1=O", "recorded_value": 77.5}

---

Test system: K24384-001-R-PDC complex spheroid growth
experiment_summary: Anticancer human tumor K24384-001-R-PDC cell line growth inhibition [AhR];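 note: percent of DMSO vehicle-treated spheroid viability set as 100%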
setup_conditions: second compound 1 µM; first compound 0.00949 µM; hits give low values
value_type: viability, T/C

{"molecule": "Nc1ncn(C2CC(O)C(CO)S2)c(=O)n1 (stereo unspecified) + Cc1cncc(-c2nc(NCCc3c[nH]c4ccccc34)c3ncn(C(C)C)c3n2)c1", "target": "K24384-001-R-PDC complex spheroid growth", "recorded_value": "177%"}
{"molecule": "CCc1c2c(nc3ccc(O)cc13)-c1cc3c(c(=O)n1C2)COC(=O)[C@]3(O)CC + Cc1cncc(-c2nc(NCCc3c[nH]c4ccccc34)c3ncn(C(C)C)c3n2)c1", "target": "K24384-001-R-PDC complex spheroid growth", "recorded_value": "41.5%"}
{"molecule": "CCc1c2c(nc3ccc(O)cc13)-c1cc3c(c(=O)n1C2)COC(=O)[C@]3(O)CC + Cc1ccccc1N=Nc1ccc(NC(=O)c2ccnn2C)c(C)c1", "target": "K24384-001-R-PDC complex spheroid growth", "recorded_value": "46.7%"}
{"molecule": "CCN(c1cc(-c2ccc(CN3CCOCC3)cc2)cc(C(=O)NCc2c(C)cc(C)[nH]c2=O)c1C)C1CCOCC1 + CC(CO)NC(=O)c1cc(-c2ccc(Cl)cc2)nn(-c2cnn(C)c2)c1=O", "target": "K24384-001-R-PDC complex spheroid growth", "recorded_value": "107%"}
{"molecule": "CC(C)CC(NC(=O)C(Cc1ccccc1)NC(=O)c1cnccn1)B(O)O (stereo unspecified) + Cc1ccccc1N=Nc1ccc(NC(=O)c2ccnn2C)c(C)c1", "target": "K24384-001-R-PDC complex spheroid growth", "recorded_value": "60.4%"}
{"molecule": "O=C(C=Cn1cnc(-c2cc(C(F)(F)F)cc(C(F)(F)F)c2)n1)NNc1cnccn1 + Cc1cncc(-c2nc(NCCc3c[nH]c4ccccc34)c3ncn(C(C)C)c3n2)c1", "target": "K24384-001-R-PDC complex spheroid growth", "recorded_value": "116%"}

---

Test system: K24384-001-R-PDC complex spheroid growth
experiment_summary: Anticancer human tumor K24384-001-R-PDC cell line growth inhibition [AhR]; active = viability on the fitted dose curve at most 10% of control; inactive = the rest;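 note: percent of DMSO vehicle-treated spheroid viability set as 100%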
setup_conditions: second compound 3.16 µM; first compound 0.03 µM
Outcomes: y (active), n (inactive)

{"compound": "CC(C)CC(NC(=O)C(Cc1ccccc1)NC(=O)c1cnccn1)B(O)O (configuration not stated) + Cc1cncc(-c2nc(NCCc3c[nH]c4ccccc34)c3ncn(C(C)C)c3n2)c1", "target": "K24384-001-R-PDC complex spheroid growth", "qualitative_label": "y"}
{"compound": "CCc1c2c(nc3ccc(O)cc13)-c1cc3c(c(=O)n1C2)COC(=O)[C@]3(O)CC + Cc1ccccc1N=Nc1ccc(NC(=O)c2ccnn2C)c(C)c1", "target": "K24384-001-R-PDC complex spheroid growth", "qualitative_label": "n"}
{"compound": "CCc1c2c(nc3ccc(O)cc13)-c1cc3c(c(=O)n1C2)COC(=O)[C@]3(O)CC + CC(CO)NC(=O)c1cc(-c2ccc(Cl)cc2)nn(-c2cnn(C)c2)c1=O", "target": "K24384-001-R-PDC complex spheroid growth", "qualitative_label": "n"}
{"compound": "CC(C)CC(NC(=O)C(Cc1ccccc1)NC(=O)c1cnccn1)B(O)O (configuration not stated) + Cc1ccccc1N=Nc1ccc(NC(=O)c2ccnn2C)c(C)c1", "target": "K24384-001-R-PDC complex spheroid growth", "qualitative_label": "y"}
{"compound": "CCN(c1cc(-c2ccc(CN3CCOCC3)cc2)cc(C(=O)NCc2c(C)cc(C)[nH]c2=O)c1C)C1CCOCC1 + Cc1ccccc1N=Nc1ccc(NC(=O)c2ccnn2C)c(C)c1", "target": "K24384-001-R-PDC complex spheroid growth", "qualitative_label": "n"}
{"compound": "Nc1ncn(C2CC(O)C(CO)S2)c(=O)n1 (configuration not stated) + CC(CO)NC(=O)c1cc(-c2ccc(Cl)cc2)nn(-c2cnn(C)c2)c1=O", "target": "K24384-001-R-PDC complex spheroid growth", "qualitative_label": "n"}
{"compound": "Nc1ncn(C2CC(O)C(CO)S2)c(=O)n1 (configuration not stated) + Cc1ccccc1N=Nc1ccc(NC(=O)c2ccnn2C)c(C)c1", "target": "K24384-001-R-PDC complex spheroid growth", "qualitative_label": "n"}
{"compound": "CCN(c1cc(-c2ccc(CN3CCOCC3)cc2)cc(C(=O)NCc2c(C)cc(C)[nH]c2=O)c1C)C1CCOCC1 + Cc1cncc(-c2nc(NCCc3c[nH]c4ccccc34)c3ncn(C(C)C)c3n2)c1", "target": "K24384-001-R-PDC complex spheroid growth", "qualitative_label": "n"}
{"compound": "CCN(c1cc(-c2ccc(CN3CCOCC3)cc2)cc(C(=O)NCc2c(C)cc(C)[nH]c2=O)c1C)C1CCOCC1 + CC(CO)NC(=O)c1cc(-c2ccc(Cl)cc2)nn(-c2cnn(C)c2)c1=O", "target": "K24384-001-R-PDC complex spheroid growth", "qualitative_label": "n"}
{"compound": "O=C(C=Cn1cnc(-c2cc(C(F)(F)F)cc(C(F)(F)F)c2)n1)NNc1cnccn1 + Cc1cncc(-c2nc(NCCc3c[nH]c4ccccc34)c3ncn(C(C)C)c3n2)c1", "target": "K24384-001-R-PDC complex spheroid growth", "qualitative_label": "n"}
{"compound": "CC(C)CC(NC(=O)C(Cc1ccccc1)NC(=O)c1cnccn1)B(O)O (configuration not stated) + CC(CO)NC(=O)c1cc(-c2ccc(Cl)cc2)nn(-c2cnn(C)c2)c1=O", "target": "K24384-001-R-PDC complex spheroid growth", "qualitative_label": "y"}
{"compound": "O=C(C=Cn1cnc(-c2cc(C(F)(F)F)cc(C(F)(F)F)c2)n1)NNc1cnccn1 + Cc1ccccc1N=Nc1ccc(NC(=O)c2ccnn2C)c(C)c1", "target": "K24384-001-R-PDC complex spheroid growth", "qualitative_label": "n"}

---

System: K24384-001-R-PDC complex spheroid growth
experiment_summary: Anticancer human tumor K24384-001-R-PDC cell line growth inhibition [AhR];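 note: percent of DMSO vehicle-treated spheroid viability set as 100%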
setup_conditions: second compound 0.1 µM; first compound 0.03 µM; hits give low values
Excerpt: Multicellular complex tumor spheroid response to aryl hydrocarbon receptor antagonists in combination with a variety of drugs and investigational agents in selected tumor cell lines […] Compounds. […] If the clinical Cmax for an agent had not been determined, the highest concentration tested was 10 microM (Table 1). […]
Mark Yes for viability, T/C under 70%, No if at or over.

{"compound": "O=C(C=Cn1cnc(-c2cc(C(F)(F)F)cc(C(F)(F)F)c2)n1)NNc1cnccn1 + Cc1cncc(-c2nc(NCCc3c[nH]c4ccccc34)c3ncn(C(C)C)c3n2)c1", "qualitative_label": "No"}
{"compound": "CCc1c2c(nc3ccc(O)cc13)-c1cc3c(c(=O)n1C2)COC(=O)[C@]3(O)CC + Cc1ccccc1N=Nc1ccc(NC(=O)c2ccnn2C)c(C)c1", "qualitative_label": "Yes"}
{"compound": "CCN(c1cc(-c2ccc(CN3CCOCC3)cc2)cc(C(=O)NCc2c(C)cc(C)[nH]c2=O)c1C)C1CCOCC1 + CC(CO)NC(=O)c1cc(-c2ccc(Cl)cc2)nn(-c2cnn(C)c2)c1=O", "qualitative_label": "No"}
{"compound": "O=C(C=Cn1cnc(-c2cc(C(F)(F)F)cc(C(F)(F)F)c2)n1)NNc1cnccn1 + CC(CO)NC(=O)c1cc(-c2ccc(Cl)cc2)nn(-c2cnn(C)c2)c1=O", "qualitative_label": "No"}
{"compound": "Nc1ncn(C2CC(O)C(CO)S2)c(=O)n1 (stereo unspecified) + CC(CO)NC(=O)c1cc(-c2ccc(Cl)cc2)nn(-c2cnn(C)c2)c1=O", "qualitative_label": "No"}
{"compound": "CCc1c2c(nc3ccc(O)cc13)-c1cc3c(c(=O)n1C2)COC(=O)[C@]3(O)CC + CC(CO)NC(=O)c1cc(-c2ccc(Cl)cc2)nn(-c2cnn(C)c2)c1=O", "qualitative_label": "Yes"}
